Assign Inspiratory time E0 to each entry below.
tested on: Sprague-Dawley rats; test: Whole-body plethysmography, respiratory effects in rats; details: IV, rats, TI(Tmax) − TI(T0), sigmoidal Emax model, mean (CV%)
Where a name gives a salt, the structure may show the parent alone. Numbered stars: 1 amine (or outer) side, 2 acyl side, 3 side chain; on linkers, the order of the positions; unused ones are H or OH. Square brackets hold non-standard residues; d marks the D form. Peptide text beside a SMILES is read from it. X1 = O=C1C(N[*:1])Cc2ccccc2CN1CCC(=O)[*:2]; Dmt = Cc1cc(O)cc(C)c1C[C@H](N)C(=O)O

The compound listed as COc1cccc(C2(O)CCCCC2CN(C)C)c1 (stereo not shown) [Tramadol, Tramadol hydrochloride, reference compound] shows Inspiratory time E0 equal to 0.006 (14.7) s

The compound listed as Cc1cc(O)cc(C)c1C[C@H](N)C(=O)N[C@H](CCCNC(=N)N)C(=O)NC1Cc2ccccc2CN(CCC(N)=O)C1=O (stereo partly shown) shows Inspiratory time E0 equal to 0.029 (9.7) s

The compound listed as CN1CC[C@]23c4c5ccc(O)c4O[C@H]2[C@@H](O)C=C[C@H]3[C@H]1C5 [Morphine, Morphine sulfate, reference compound] shows Inspiratory time E0 equal to 0.006 (11.5) s

Now consider a different compound.
The compound listed as CC[C@H](C)[C@H](NC(=O)[C@H](CCCNC(=N)N)NC(=O)[C@H](Cc1ccc(O)cc1)NC(=O)[C@H](Cc1ccc(O)cc1)NC(=O)[C@H](CCCNC(=N)N)NC(=O)CCN1Cc2ccccc2CC(NC(=O)[C@@H](CCCNC(=N)N)NC(=O)[C@@H](N)Cc2c(C)cc(O)cc2C)C1=O)C(=O)N[C@@H](CCCCN)C(N)=O (stereo partly shown) [KGNOP1] (H-[Dmt][dR][X1]RYYRIK-NH2) shows Inspiratory time E0 equal to 0.06 (13.1) s

###

assay: Whole-body plethysmography, respiratory effects in rats; conditions: Sprague-Dawley, rat, in vivo, iv, Inspiratory time (TI) ED50, IV, rats, plethysmography at Tmax, sigmoidal Emax model, mean (CV%)
Counter-ions that a name gives are not always drawn. Numbered stars: 1 amine (or outer) side, 2 acyl side, 3 side chain; on linkers, the order of the positions; unused ones are H or OH. Square brackets hold non-standard residues; d marks the D form. Peptide text beside a SMILES is read from it. X1 = O=C1C(N[*:1])Cc2ccccc2CN1CCC(=O)[*:2]; Dmt = Cc1cc(O)cc(C)c1C[C@H](N)C(=O)O
Assign ED50 to each entry below.
Numbers only, in µmol/kg.

The compound listed as CC[C@H](C)[C@H](NC(=O)[C@H](CCCNC(=N)N)NC(=O)[C@H](Cc1ccc(O)cc1)NC(=O)[C@H](Cc1ccc(O)cc1)NC(=O)[C@H](CCCNC(=N)N)NC(=O)CCN1Cc2ccccc2CC(NC(=O)[C@@H](CCCNC(=N)N)NC(=O)[C@@H](N)Cc2c(C)cc(O)cc2C)C1=O)C(=O)N[C@@H](CCCCN)C(N)=O (stereo partly shown) [KGNOP1] (H-[Dmt][dR][X1]RYYRIK-NH2) shows ED50 equal to 0.63

The compound listed as Cc1cc(O)cc(C)c1C[C@H](N)C(=O)N[C@H](CCCNC(=N)N)C(=O)NC1Cc2ccccc2CN(CCC(N)=O)C1=O (stereo partly shown) shows ED50 equal to 0.52

For every item in the list below, what is its measured ED50?
1. CN1CC[C@]23c4c5ccc(O)c4O[C@H]2[C@@H](O)C=C[C@H]3[C@H]1C5 [Morphine, Morphine sulfate, reference compound]
2. COc1cccc(C2(O)CCCCC2CN(C)C)c1 (stereo not shown) [Tramadol, Tramadol hydrochloride, reference compound]

1: 12.2; 2: 50.9

###

test: Whole-body plethysmography, respiratory effects in rats; details: Sprague-Dawley, rat, in vivo, iv, Minute volume (VM) ED50, IV, rats, plethysmography at Tmax, sigmoidal Emax model, mean (CV%)
Counter-ions that a name gives are not always drawn. Numbered stars: 1 amine (or outer) side, 2 acyl side, 3 side chain; on linkers, the order of the positions; unused ones are H or OH. Square brackets hold non-standard residues; d marks the D form. Peptide text beside a SMILES is read from it. X1 = O=C1C(N[*:1])Cc2ccccc2CN1CCC(=O)[*:2]; Dmt = Cc1cc(O)cc(C)c1C[C@H](N)C(=O)O
readout-label: ED50
Entry format: amount then unit.

The compound listed as COc1cccc(C2(O)CCCCC2CN(C)C)c1 (stereo not shown) [Tramadol, Tramadol hydrochloride, reference compound] shows ED50 equal to 50 µmol/kg

The compound listed as CN1CC[C@]23c4c5ccc(O)c4O[C@H]2[C@@H](O)C=C[C@H]3[C@H]1C5 [Morphine, Morphine sulfate, reference compound] shows ED50 equal to 10.6 µmol/kg

The compound listed as Cc1cc(O)cc(C)c1C[C@H](N)C(=O)N[C@H](CCCNC(=N)N)C(=O)NC1Cc2ccccc2CN(CCC(N)=O)C1=O (stereo partly drawn) [KGOP1, H-Dmt-D-Arg-Aba-βAla-NH2] shows ED50 equal to 0.66 µmol/kg

Now consider a different compound.
The compound listed as CC[C@H](C)[C@H](NC(=O)[C@H](CCCNC(=N)N)NC(=O)[C@H](Cc1ccc(O)cc1)NC(=O)[C@H](Cc1ccc(O)cc1)NC(=O)[C@H](CCCNC(=N)N)NC(=O)CCN1Cc2ccccc2CC(NC(=O)[C@@H](CCCNC(=N)N)NC(=O)[C@@H](N)Cc2c(C)cc(O)cc2C)C1=O)C(=O)N[C@@H](CCCCN)C(N)=O (stereo partly shown) [KGNOP1] (H-[Dmt][dR][X1]RYYRIK-NH2) shows ED50 equal to 0.57 µmol/kg

###

system: Sprague-Dawley rats; assay: Whole-body plethysmography, respiratory effects in rats; conditions: IV, rats, TI(Tmax) − TI(T0), sigmoidal Emax model, mean (CV%)
Structures can show the parent of a compound that is named as a salt. Numbered stars: 1 amine (or outer) side, 2 acyl side, 3 side chain; on linkers, the order of the positions; unused ones are H or OH. Square brackets hold non-standard residues; d marks the D form. Peptide text beside a SMILES is read from it. X1 = O=C1C(N[*:1])Cc2ccccc2CN1CCC(=O)[*:2]; Dmt = Cc1cc(O)cc(C)c1C[C@H](N)C(=O)O
Assign Inspiratory time Emax to each entry below.

Here's what some known entries look like.
The compound listed as CC[C@H](C)[C@H](NC(=O)[C@H](CCCNC(=N)N)NC(=O)[C@H](Cc1ccc(O)cc1)NC(=O)[C@H](Cc1ccc(O)cc1)NC(=O)[C@H](CCCNC(=N)N)NC(=O)CCN1Cc2ccccc2CC(NC(=O)[C@@H](CCCNC(=N)N)NC(=O)[C@@H](N)Cc2c(C)cc(O)cc2C)C1=O)C(=O)N[C@@H](CCCCN)C(N)=O (stereo partly shown) [KGNOP1] (H-[Dmt][dR][X1]RYYRIK-NH2) shows Inspiratory time Emax equal to 0.16 (16.1) s

The compound listed as Cc1cc(O)cc(C)c1C[C@H](N)C(=O)N[C@H](CCCNC(=N)N)C(=O)NC1Cc2ccccc2CN(CCC(N)=O)C1=O (stereo partly shown) shows Inspiratory time Emax equal to 0.15 (15.1) s

For every item in the list below, what is its measured Inspiratory time Emax?
1. CN1CC[C@]23c4c5ccc(O)c4O[C@H]2[C@@H](O)C=C[C@H]3[C@H]1C5 [Morphine, Morphine sulfate, reference compound]
2. COc1cccc(C2(O)CCCCC2CN(C)C)c1 (stereo not shown) [Tramadol, Tramadol hydrochloride, reference compound]

0.16 (5.9) s
0.17 (34.6) s
